Sourced from paper PMC5540273

Please provide measured %Inh for the entries that follow.
Tested on: PIK4CB
Construct: gene PI4KB
Details: concentration: 1 μM, replicates: in singlicate; n = 1;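 further: KINOMEscan kinase panel screen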
One number for each entry, in %.

Worked cases, answers included:
COc1cccc(CNC(=O)NC2CCN(c3ccnc(Nc4ccc(F)cc4)n3)C2)c1 (centres unmarked) [GSK1379723] | 11
Cn1cncc1C(=O)NC1CCN(c2ccnc(Nc3ccc(F)cc3)n2)C1 (centres unmarked) [GSK1379717] | 26
Nc1ncnc2occ(-c3ccc4c(c3)CCN4C(=O)Cc3cc(F)ccc3F)c12 [GSK2645446] | 0
COc1ccc(-c2coc3ccc(-c4nnc(C)o4)cc23)cc1 | 0

Okay, next one:
Which measured %Inh value corresponds to Cc1cccc2c(-c3ccncn3)c(-c3ccc(F)cc3)nn12 [GW515532] ?
0

###

Tested on: MAP4K2
Settings: concentration: 1 μM, replicates: in singlicate; n = 1
endpoint.label: %Inh (%)
Numbers only, in %.

Here's what some known entries look like.
CC(=O)c1c(C)c2cnc(Nc3ccc(N4CCNCC4)cn3)nc2n(C2CCCC2)c1=O | 0
Fc1ccc(-c2nc[nH]c2-c2ccncc2)cc1 [SB-217360] | 0
NS(=O)(=O)c1cccc(N/C=C2\C(=O)Nc3ccc(S(=O)(=O)Cc4c(Cl)cccc4Cl)cc32)c1 [GSK398099] | 0
CSc1ccc(-c2nc3n(c2-c2ccncc2)CCC3)cc1 [SKF-105561] | 0
CC[C@@H]1CO[C@H](C(=O)Nc2ccccc2)CN1c1cc(-c2ccc3c(N)n[nH]c3c2)nc(NC)n1 [GSK2376236] | 0
CCn1c(-c2c(N)noc2C)nc2cnccc21 [SB-737856] | 0
c1ccc(-c2ccnc3[nH]ccc23)cc1 [SB-693578] | 32
Cn1cncc1-c1cc2c(Nc3ccc(OCc4ccccc4)cc3)ncnc2cn1 [GW281179] | 0
Nc1nccc(-c2c(-c3ccc(F)cc3)ncn2C2CCN(Cc3ccccc3)CC2)n1 [SB-219980] | 19

Now turn to the next compound.
# input compound: Cn1cnc2c(N)ncnc21 [SKF-97623] ; wanted: its %Inh
0

###

Tested on: GSK3A
Settings: concentration: 1 μM, replicates: in singlicate; n = 1
endpoint.label: %Inh

The following compounds have reported results that may help.
O=C(Nc1n[nH]c2cc(-c3ccsc3)ccc12)C1CC1 | 38%
O=c1cc(N2CCOCC2)nc2n(Cc3ccccc3F)ccn12 | 80%
Cc1cnc(N)c(/C=C/c2cncc(C(=O)NCCc3ccc(Cl)cc3Cl)c2)c1.Cl | 5%

I have 2 compounds here; please give me %Inh for each one.
1. Cc1ccccc1-c1cc(-c2c[nH]nc2-c2ccccn2)ccn1
2. COc1ccc(Nc2nccc(N3CCC(NC(=O)C(C)c4ccc(Cl)cc4)C3)n2)cc1 (centres unmarked)

["0%", "34%"]

###

System: ERK3
Construct: gene MAPK6
Settings: concentration: 1 μM, replicates: in singlicate; n = 1
Give measured %Inh for each item. Keep answers brief.
Param answer (str): number followed by unit.

Consider the following illustrative entries.
CC(=O)c1c(C)c2cnc(Nc3ccc(N4CCNCC4)cn3)nc2n(C2CCCC2)c1=O | 89%
Fc1ccc(-c2nc3n(c2-c2ccncc2)CCS3)cc1 | 5%
CCc1ccc(-c2ccc3c(c2)-c2n[nH]cc2S(=O)(=O)N3C)cc1 | 0%
CSc1ccc(-c2nc3n(c2-c2ccncc2)CCC3)cc1 | 0%
CC(C)c1cc(-c2ccc3c(N)n[nH]c3c2)nc(N)n1 | 0%
COc1cccc(NC(=O)Nc2ccc(C)c(-c3ccc(C(=O)Nc4ccncc4)cc3)c2)c1 | 7%
Cc1ccc(-c2nc(Nc3ccncc3)c3ccccc3n2)s1 | 0%
CC(=O)c1cccc(NC(=O)NC2CCN(c3ccnc(Nc4ccc(F)cc4)n3)C2)c1 (stereo not shown) | 0%
COc1ccc(CSc2nnc(-c3ccc4ncsc4c3)o2)cc1C(F)(F)F | 0%
Cn1cncc1C(=O)NC1CCN(c2ccnc(Nc3ccc(F)cc3)n2)C1 (stereo not shown) | 0%

For each listed entry, give its %Inh.
1. O=c1cc(N2CCOCC2)nc2n(Cc3ccccc3F)ccn12
2. FC(F)(F)c1ccccc1-c1cc(-c2c[nH]nc2-c2ccccn2)ccn1
3. CS(=O)(=O)CCNCc1nc(-c2ccc3ncnc(Nc4ccc(OCc5ccccc5)c(Cl)c4)c3c2)cs1.Cl
4. CNc1cc(-c2ccc3c(N)n[nH]c3c2)nc(N)n1
5. COC(=O)c1cccc(NC(=O)NC2CCN(c3ccnc(Nc4ccc(F)cc4)n3)C2)c1 (stereo not shown)
6. CS(=O)(=O)CCNCc1nc(-c2ccc3ncnc(Nc4ccc5c(cnn5Cc5ccccc5)c4)c3c2)cs1.Cl.Cl
7. CC(C)c1ccc(O)cc1Nc1ccnc2ccc(C(F)(F)F)cc12
8. Nc1ncnc2occ(-c3ccc4c(c3)CCN4C(=O)Cc3cc(F)ccc3F)c12

0%
11%
0%
3%
0%
0%
0%
21%

Which %Inh value belongs to `COc1ccc(Nc2nccc(NCCNC(=O)Nc3cc(C)ccc3C)n2)cc1` ?
0%
